tested on: 2.2.15 cells; assay: neutral red dye uptake cytotoxicity; format: cell-based; settings: 9 days treatment, read-out: 50% Cell Death CC50

- smiles-data: "Cc1[nH]c2ccccc2c1C=NNc1nc(Nc2ccccc2)nc(N2CCOCC2)n1"
  relation: "="
  CC50 / µM: 3.7
- smiles-data: "Cc1[nH]c2ccccc2c1C=NNc1nc(Nc2ccccc2)nc(Nc2ccc([N+](=O)[O-])cc2)n1"
  relation: "="
  CC50 / µM: 29
- smiles-data: "Oc1ccc(Br)cc1C=NNc1nc(Nc2cccc(C(F)(F)F)c2)nc(N2CCOCC2)n1"
  relation: "="
  CC50 / µM: 141
- smiles-data: "CC(=NNc1nc(NCc2ccccc2)nc(Nc2ccccc2)n1)c1ccc([N+](=O)[O-])cc1"
  relation: ">"
  CC50 / µM: 300
